Target: rat lens AR (aldose reductase) (Rattus norvegicus)
Experiment: AR inhibition assay with rat lens AR homogenate
Settings: read-out: AR Inhibitory Activity Inhibition (%)
Catalogue of inhibition at 0.78 µM readings, one per entry.
Numbers only; they are read as %.

molecule	assayedSystem	inhibition at 0.78 µM / %
CCCCOC(=O)[C@@H](Cc1ccc(O)c(O)c1)OC(=O)/C=C/c1ccc(O)c(O)c1 [n-Butyl rosmarinate (7), n-Butyl rosmarinate]	rat lens AR (aldose reductase) (Rattus norvegicus)	28.6
COC(=O)[C@@H](Cc1ccc(O)c(O)c1)OC(=O)/C=C/c1ccc(O)c(O)c1 [Methyl rosmarinate (5), Methyl rosmarinate]	rat lens AR (aldose reductase) (Rattus norvegicus)	40.9
CCCOC(=O)[C@@H](Cc1ccc(O)c(O)c1)OC(=O)/C=C/c1ccc(O)c(O)c1 [Propyl rosmarinate (S2), Propyl rosmarinate]	rat lens AR (aldose reductase) (Rattus norvegicus)	37.9

Now turn to the next molecule.
Input line: Quote inhibition at 0.78 µM reported for CCOC(=O)[C@@H](Cc1ccc(O)c(O)c1)OC(=O)/C=C/c1ccc(O)c(O)c1 [Ethyl rosmarinate (S1), Ethyl rosmarinate] please.
Output line: 43.2

* * *

Catalogue of inhibition at 12.5 µM readings, one per entry.
Molecular target: rat lens AR (aldose reductase) (Rattus norvegicus)
Test: AR inhibition assay with rat lens AR homogenate
Details: read-out: AR Inhibitory Activity Inhibition (%)
Numbers only; they are read as %.

These solved cases illustrate the format of a correct answer.
compoundSmiles	measuredQuantity	measuredValue
COc1ccc([C@@H]2CC(=O)c3c(O)cc(O[C@@H]4O[C@H](CO[C@@H]5O[C@@H](C)[C@H](O)[C@@H](O)[C@H]5O)[C@@H](O)[C@H](O)[C@H]4O)cc3O2)cc1O	inhibition at 12.5 µM	1.78
COc1ccc(-c2cc(=O)c3c(O)cc(O[C@@H]4O[C@H](CO[C@@H]5O[C@@H](C)[C@H](O)[C@@H](O)[C@H]5O)[C@@H](O)[C@H](O)[C@H]4O)cc3o2)cc1O	inhibition at 12.5 µM	8.91

Now turn to the next compound.
Input line: Quote inhibition at 12.5 µM reported for `O=C(/C=C/c1ccc(O)c(O)c1)O[C@H](Cc1ccc(O)c(O)c1)C(=O)O` please.
Output line: 76

* * *

Catalogue of inhibition at 12.5 µM readings, one per entry.
Molecular target: rat lens AR (aldose reductase) (Rattus norvegicus, UniProt P07943)
Assay: AR inhibition assay with rat lens AR homogenate
Conditions: read-out: AR Inhibitory Activity Inhibition (%)
Numbers only; they are read as %.

compound	assayedSystem	inhibition at 12.5 µM, %
O=C(O)/C=C/c1ccc(O)c(O)c1 [Caffeic acid (1), Caffeic acid]	rat lens AR (aldose reductase) (Rattus norvegicus, UniProt P07943)	12.3
O=c1c(O)c(-c2ccc(O)c(O)c2)oc2cc(O)cc(O)c12 [Quercetin, quercetin, reference compound]	rat lens AR (aldose reductase) (Rattus norvegicus, UniProt P07943)	45

Now turn to the next compound.
Input line: Param request: inhibition at 12.5 µM | system rat lens AR (aldose reductase) (Rattus norvegicus, UniProt P07943) | item COc1ccc(-c2cc(=O)c3c(O)cc(O)cc3o2)cc1O [Diosmetin (6), Diosmetin]
Output line: 10.5

* * *

Quick record: IC50, rat lens AR (aldose reductase) (Rattus norvegicus, UniProt P07943).
Numbers only; they are read as µM.

molecule	measuredQuantity	unitAbbreviation	measuredValue
CCCCOC(=O)[C@@H](Cc1ccc(O)c(O)c1)OC(=O)/C=C/c1ccc(O)c(O)c1 [n-Butyl rosmarinate (7), n-Butyl rosmarinate]	IC50	µM	1.54
CCOC(=O)[C@@H](Cc1ccc(O)c(O)c1)OC(=O)/C=C/c1ccc(O)c(O)c1 [Ethyl rosmarinate (S1), Ethyl rosmarinate]	IC50	µM	1.02
O=C(/C=C/c1ccc(O)c(O)c1)O[C@H](Cc1ccc(O)c(O)c1)C(=O)O	IC50	µM	4.08

Input line: Param request: IC50 | system rat lens AR (aldose reductase) (Rattus norvegicus, UniProt P07943) | item COC(=O)[C@@H](Cc1ccc(O)c(O)c1)OC(=O)/C=C/c1ccc(O)c(O)c1 [Methyl rosmarinate (5), Methyl rosmarinate]
Output line: 1.17

Input line: Param request: IC50 | system rat lens AR (aldose reductase) (Rattus norvegicus, UniProt P07943) | item CCCOC(=O)[C@@H](Cc1ccc(O)c(O)c1)OC(=O)/C=C/c1ccc(O)c(O)c1 [Propyl rosmarinate (S2), Propyl rosmarinate]
Output line: 1.29

* * *

Molecular target: rat lens AR (aldose reductase) (Rattus norvegicus, UniProt P07943)
Test: AR inhibition assay with rat lens AR homogenate
Conditions: read-out: AR Inhibitory Activity Inhibition (%)
measuredQuantity: inhibition at 25 µM (%)
Numbers only; they are read as %.

These solved cases illustrate the format of a correct answer.
molecule	assayedSystem	measuredValue
COc1ccc(-c2cc(=O)c3c(O)cc(O)cc3o2)cc1O	rat lens AR (aldose reductase) (Rattus norvegicus, UniProt P07943)	22
O=C(O)/C=C/c1ccc(O)c(O)c1	rat lens AR (aldose reductase) (Rattus norvegicus, UniProt P07943)	17.8
O=c1c(O)c(-c2ccc(O)c(O)c2)oc2cc(O)cc(O)c12 [Quercetin, quercetin, reference compound]	rat lens AR (aldose reductase) (Rattus norvegicus, UniProt P07943)	65.1
COc1ccc([C@@H]2CC(=O)c3c(O)cc(O[C@@H]4O[C@H](CO[C@@H]5O[C@@H](C)[C@H](O)[C@@H](O)[C@H]5O)[C@@H](O)[C@H](O)[C@H]4O)cc3O2)cc1O	rat lens AR (aldose reductase) (Rattus norvegicus, UniProt P07943)	10

Now turn to the next molecule.
Input line: Quote inhibition at 25 µM reported for `COc1ccc(-c2cc(=O)c3c(O)cc(O[C@@H]4O[C@H](CO[C@@H]5O[C@@H](C)[C@H](O)[C@@H](O)[C@H]5O)[C@@H](O)[C@H](O)[C@H]4O)cc3o2)cc1O` please.
Output line: 11.2

* * *

Catalogue of inhibition at 50 µM readings, one per entry.
Target: rat lens AR (aldose reductase) (Rattus norvegicus, UniProt P07943)
Assay: AR inhibition assay with rat lens AR homogenate
Conditions: read-out: AR Inhibitory Activity Inhibition (%)
Numbers only; they are read as %.

These solved cases illustrate the format of a correct answer.
compoundSmiles	measuredQuantity	measuredValue
O=C(O)/C=C/c1ccc(O)c(O)c1	inhibition at 50 µM	20.3
COc1ccc(-c2cc(=O)c3c(O)cc(O)cc3o2)cc1O	inhibition at 50 µM	34
COc1ccc(-c2cc(=O)c3c(O)cc(O[C@@H]4O[C@H](CO[C@@H]5O[C@@H](C)[C@H](O)[C@@H](O)[C@H]5O)[C@@H](O)[C@H](O)[C@H]4O)cc3o2)cc1O	inhibition at 50 µM	12.3

Now turn to the next compound.
Input line: Quote inhibition at 50 µM reported for `COc1ccc([C@@H]2CC(=O)c3c(O)cc(O[C@@H]4O[C@H](CO[C@@H]5O[C@@H](C)[C@H](O)[C@@H](O)[C@H]5O)[C@@H](O)[C@H](O)[C@H]4O)cc3O2)cc1O` please.
Output line: 11.6

* * *

Catalogue of inhibition at 0.39 µM readings, one per entry.
Biological target: rat lens AR (aldose reductase) (Rattus norvegicus, UniProt P07943)
Test: AR inhibition assay with rat lens AR homogenate
Conditions: read-out: AR Inhibitory Activity Inhibition (%)
Write the numeric value and append its unit.

These solved cases illustrate the format of a correct answer.
compound	measuredValue
COC(=O)[C@@H](Cc1ccc(O)c(O)c1)OC(=O)/C=C/c1ccc(O)c(O)c1 [Methyl rosmarinate (5), Methyl rosmarinate]	22.1%
CCOC(=O)[C@@H](Cc1ccc(O)c(O)c1)OC(=O)/C=C/c1ccc(O)c(O)c1 [Ethyl rosmarinate (S1), Ethyl rosmarinate]	27.4%
CCCCOC(=O)[C@@H](Cc1ccc(O)c(O)c1)OC(=O)/C=C/c1ccc(O)c(O)c1 [n-Butyl rosmarinate (7), n-Butyl rosmarinate]	13.1%

Now turn to the next compound.
Input line: Param request: inhibition at 0.39 µM | system rat lens AR (aldose reductase) (Rattus norvegicus, UniProt P07943) | item CCCOC(=O)[C@@H](Cc1ccc(O)c(O)c1)OC(=O)/C=C/c1ccc(O)c(O)c1 [Propyl rosmarinate (S2), Propyl rosmarinate]
Output line: 12.3%

* * *

Biological target: rat lens AR (aldose reductase) (Rattus norvegicus, UniProt P07943)
Assay: AR inhibition assay with rat lens AR homogenate;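 also: supernatant of Sprague–Dawley rat lens extract as enzyme, DL-glyceraldehyde substrate, absorbance at 340 nm followed over 6 min, DMSO up to 0.5% v/v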
Settings: read-out: AR Inhibitory Activity Inhibition (%)
Catalogue of inhibition at 1.56 µM readings, one per entry.
Write the numeric value and append its unit.

These solved cases illustrate the format of a correct answer.
compound	measuredQuantity	measuredValue
COC(=O)[C@@H](Cc1ccc(O)c(O)c1)OC(=O)/C=C/c1ccc(O)c(O)c1 [Methyl rosmarinate (5), Methyl rosmarinate]	inhibition at 1.56 µM	56.7%
CCCCOC(=O)[C@@H](Cc1ccc(O)c(O)c1)OC(=O)/C=C/c1ccc(O)c(O)c1 [n-Butyl rosmarinate (7), n-Butyl rosmarinate]	inhibition at 1.56 µM	51.4%
CCOC(=O)[C@@H](Cc1ccc(O)c(O)c1)OC(=O)/C=C/c1ccc(O)c(O)c1 [Ethyl rosmarinate (S1), Ethyl rosmarinate]	inhibition at 1.56 µM	60.5%

Input line: Quote inhibition at 1.56 µM reported for CCCOC(=O)[C@@H](Cc1ccc(O)c(O)c1)OC(=O)/C=C/c1ccc(O)c(O)c1 [Propyl rosmarinate (S2), Propyl rosmarinate] please.
Output line: 53.7%
